Ref: patent US8242118B2

# Study target: Human CCR3 (Homo sapiens)
# Construct: The cloned CCR3 cDNA was constructed with pcDNA3 vector and transfected into a IC562 cell line; expressed in transfected cells
# Sequence (P51677 whole entry): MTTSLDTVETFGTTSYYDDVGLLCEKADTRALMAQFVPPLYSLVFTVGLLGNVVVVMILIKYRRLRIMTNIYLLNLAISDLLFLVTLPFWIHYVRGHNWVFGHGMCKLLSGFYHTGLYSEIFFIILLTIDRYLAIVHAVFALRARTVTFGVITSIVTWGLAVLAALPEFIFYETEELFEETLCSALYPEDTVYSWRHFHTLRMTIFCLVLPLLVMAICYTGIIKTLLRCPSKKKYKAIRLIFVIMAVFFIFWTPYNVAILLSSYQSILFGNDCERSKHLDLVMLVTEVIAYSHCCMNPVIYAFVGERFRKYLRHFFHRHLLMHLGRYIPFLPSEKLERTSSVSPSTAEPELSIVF
# Method description: Calcium mobilization assay, eotaxin-stimulated
# Assay type: cell-based
# Experimental context: human CCR3-transformed K562 cells, 10 nM eotaxin; compounds of about 40 to 90% purity; read-out: Activity grade Ca2+ (IC50 class)
pIC50: −log10 of the molar value.
Known pIC50 of a selection of compounds

Here's what some known entries look like.
CCCCc1ccccc1Oc1ccc([N+](=O)[O-])cc1S(=O)(=O)N1CCNCC1.Cl :: > 6.00
O=C(O)C1CNCCN1S(=O)(=O)c1cc([N+](=O)[O-])ccc1Oc1cc(Cl)cc(Cl)c1 (stereo not drawn) :: > 6.00
O=[N+]([O-])c1ccc(Sc2cc(Cl)cc(Cl)c2)c(S(=O)(=O)N2CCN(CC3CCCO3)CC2)c1 (stereo not drawn) :: > 6.00
Cc1cc(Oc2ccc([N+](=O)[O-])cc2S(=O)(=O)N2CCNCC2)cc(C(C)C)c1.Cl :: > 6.00
N[C@H]1CCN(S(=O)(=O)c2cc([N+](=O)[O-])ccc2Sc2cc(Cl)cc(Cl)c2)C1 :: > 6.00

[Q] Given the entry "Cl.O=[N+]([O-])c1ccc(Sc2cc(Cl)cc(Cl)c2)c(S(=O)(=O)NCC2CCNCC2)c1" , report its measured pIC50.
[A] > 6.00

[Q] Given the entry "CN(c1cccnc1)S(=O)(=O)c1cc(C#N)ccc1Oc1cc(Cl)cc(Cl)c1.Cl" , report its measured pIC50.
[A] > 6.00
